ASSAY INFO: LNP zeta potential (Zetasizer)
Assay type: physicochemical
SETTINGS: LNP with cirRNA (SEQ ID NO: 1)
Zeta (mV) of 1 mV or higher: MET. Under 1 mV: NOT MET.

I'd appreciate it if you could say whether CCCCC/C=C\C/C=C\CCCCCCCCN(CCCCCCCC/C=C\C/C=C\CCCCC)CCOC(=O)NCCN1CCN(C)CC1 has Zeta (mV) at least equal to 1 mV.
MET

I'd appreciate it if you could say whether CCCCCCCCC(CCCCCCCC)OC(=O)CCCCCCCN(CCCCCCCCOC(=O)C(CCCCCC)CCCCCCCC)CCOC(=O)NCCN1CCCC1 (centres unmarked) has Zeta (mV) at least equal to 1 mV.
NOT MET

I'd appreciate it if you could say whether CCCCC/C=C\C/C=C\CCCCCCCCN(CCCCCCCC(=O)OC(CCCCCCCC)CCCCCCCC)CCOC(=O)NCCN1CCCC1 has Zeta (mV) at least equal to 1 mV.
NOT MET

---
I'd appreciate it if you could say whether CCCCCCCCCC(=O)OCCCCCCCN(CCCCCCCCOC(=O)C(CCCCCC)CCCCCCCC)CCOC(=O)NCCN1CCN(C)CC1 (centres unmarked) has Zeta (mV) at least equal to 1 mV.
MET

I'd appreciate it if you could say whether CCCCC/C=C\C/C=C\CCCCCCCCN(CCCCCCCC/C=C\CCCCCCCC)CCOC(=O)NCCN(C)C has Zeta (mV) at least equal to 1 mV.
MET

====

Please go through the items and note down their Size.
ASSAY INFO: LNP size and polydispersity index (PDI) by dynamic light scattering
Format: physicochemical
SETTINGS: LNP with cirRNA (SEQ ID NO: 1); in nm (unit assumed)

Worked cases, Size given:
Return Size for the following compound: CCCCCCCCCCCOC(=O)CCCCCN(CCCCCCCCOC(=O)C(CCCCCC)CCCCCCCC)CCOC(=O)NCCCN(C)C (stereo not drawn)
86.14

Return Size for the following compound: CCCCCCCCC(CCCCCC)C(=O)OCCCCCCCCN(CCCCCCCCOC(=O)C(CCCCCC)CCCCCCCC)CCCOC(=O)NCCN(C)C (stereo not drawn)
105.2

Return Size for the following compound: CCCCCCCCCCCOC(=O)CCCCCN(CCCCCC(=O)OCCCCCCCCCCC)CCOC(=O)NCCN1CCCC1
98.37

Return Size for the following compound: CCCCCCCCCCC(CCCCCCCC)COC(=O)CCCCCN(CCCCCC(=O)OCC(CCCCCCCC)CCCCCCCCCC)CCOC(=O)NCCCN(C)C (stereo not drawn)
71.24

Return Size for the following compound: CCCCCCCCC(CCCCCCCC)OC(=O)CCCCCCCN(CCCCCCCCOC(=O)C(CCCCCC)CCCCCCCC)CCNC(=O)OCCN(C)C (stereo not drawn)
87.32

# per-item lookup of Size; items listed below
1. CCCCCCCCC(CCCCCCCC)OC(=O)CCCCCCCN(CCCCCCCCOC(=O)C(CCCCCC)CCCCCCCC)CCOC(=O)NCCN1CCCCC1 (stereo not drawn)
2. CCCCC/C=C\C/C=C\CCCCCCCCN(CCCCCCCC(=O)OC(CCCCCCCC)CCCCCCCC)CCCOC(=O)NCc1ncc[nH]1
3. CCCCC/C=C\CCOC(=O)CCCCCN(CCCCCC(=O)OCC(CCCCCCCC)CCCCCCCCCC)CCOC(=O)NCCN1CCCC1 (stereo not drawn)
4. CCCCCCCCCC(=O)OCCCCCCCN(CCCCCCCCOC(=O)C(CCCCCC)CCCCCCCC)CCOC(=O)NCCN1CCN(C)CC1 (stereo not drawn)
5. CCCCCCCCCCCOC(=O)CCCCCN(CCCCCCCCOC(=O)C(CCCCCC)CCCCCCCC)CCOC(=O)NCCN1CCN(C)CC1 (stereo not drawn)

[71.14, 98.73, 87.4, 82.06, 98.73]

# per-item lookup of Size; items listed below
1. CCCCC/C=C\CCOC(=O)CCCCCN(CCCCCCCCOC(=O)C(CCCCCC)CCCCCCCC)CCOC(=O)NCCN1CCOCC1 (stereo not drawn)
2. CCCCCCCCCCC(CCCCCCCC)COC(=O)CCCCCN(CCCCCCCCOC(=O)C(CCCCCC)CCCCCCCC)CCOC(=O)NCCN(C)C (stereo not drawn)
3. CCCCCCCC/C=C\CCCCCCCCN(CCCCCCCCOC(=O)C(CCCCCC)CCCCCCCC)CCOC(=O)NCCN(C)C (stereo not drawn)
4. CCCCCCCC/C=C\CCCCCCCCN(CCCCCCCCOC(=O)C(CCCCCC)CCCCCCCC)CCOC(=O)NCCCn1ccnc1 (stereo not drawn)

[73.74, 89.19, 97.77, 60.05]

# per-item lookup of Size; items listed below
1. CCCCC/C=C\C/C=C\CCCCCCCCN(CCCCCCCC(=O)OC(CCCCCCCC)CCCCCCCC)CCCOC(=O)NCCN1CCN(C)CC1
2. CCCCCCCCCCCOC(=O)CCCCCN(CCCCCCCC(=O)OC(CCCCCCCC)CCCCCCCC)CCOC(=O)NCCN1CCCCC1
3. CCCCCCCCC(CCCCCCCC)OC(=O)CCCCCCCN(CCCCCCCCOC(=O)C(CCCCCC)CCCCCCCC)CCCOC(=O)NCCCN(C)C (stereo not drawn)

88.34
90.53
100.8

# per-item lookup of Size; items listed below
1. CCCCC/C=C\C/C=C\CCCCCCCCN(CCCCCCCC/C=C\CCCCCCCC)CCOC(=O)NCCN1CCN(C)CC1
2. CCCCC/C=C\C/C=C\CCCCCCCCN(CCCCCCCC/C=C\CCCCCCCC)CCOC(=O)NCCCN(CC)CC
3. CCCCC/C=C\C/C=C\CCCCCCCCN(CCCCCCCC/C=C\C/C=C\CCCCC)CCOC(=O)NCCN1CCN(C)CC1
4. CCCCCCCCC(CCCCCCCC)OC(=O)CCCCCCCN(CCCCCCCCOC(=O)C(CCCCCC)CCCCCCCC)CCCOC(=O)NCCN1CCCC1 (stereo not drawn)

1. 83.09
2. 161.1
3. 145.8
4. 112.8

# per-item lookup of Size; items listed below
1. CCCCCCCCCCC(CCCCCCCC)COC(=O)CCCCCN(CCCCCC(=O)OCC(CCCCCCCC)CCCCCCCCCC)CCCOC(=O)NCCN1CCC1 (stereo not drawn)
2. CCCCCCCCCCCOC(=O)CCCCCN(CCCCCC(=O)OCCCCCCCCCCC)CCOC(=O)NCCCN(C)C
3. CCCCCCCCCCC(CCCCCCCC)COC(=O)CCCCCN(CCCCCC(=O)OCC(CCCCCCCC)CCCCCCCCCC)CCCOC(=O)NCCN1CCCCC1 (stereo not drawn)
4. CCCCC/C=C\C/C=C\CCCCCCCCN(CCCCCCCC/C=C\CCCCCCCC)CCOC(=O)NCCN(C)C
5. CCCCC/C=C\C/C=C\CCCCCCCCN(CCCCCCCC/C=C\C/C=C\CCCCC)CCOC(=O)NCCN1CCCCC1

1. 118.2
2. 71.11
3. 90.63
4. 142.9
5. 81.48

Return Size for the following compound: CCCCCCCCCC(=O)OCCCCCCCN(CCCCCCCCOC(=O)C(CCCCCC)CCCCCCCC)CCCOC(=O)NCc1ncc[nH]1 (stereo not drawn)
82.84

====

ASSAY INFO: LNP size and polydispersity index (PDI) by dynamic light scattering
Type: physicochemical
SETTINGS: LNP with cirRNA (SEQ ID NO: 1); in nm (unit assumed)
Please go through the items and note down their Size.

Worked cases, Size given:
Return Size for the following compound: CCCCC/C=C\C/C=C\CCCCCCCCN(CCCCCCCC(=O)OC(CCCCCCCC)CCCCCCCC)CCCOC(=O)NCCCN(C)C [Lipid 275]
60

Return Size for the following compound: CCCCC/C=C\C/C=C\CCCCCCCCN(CCCCCCCC(=O)OC(CCCCCCCC)CCCCCCCC)CCOC(=O)NCCCN(C)C [Lipid 130]
145.8

Return Size for the following compound: CCCCCCCCCC(=O)OCCCCCCCCN(CCCCCCCCOC(=O)CCCCCCCCC)CCOC(=O)NCCN1CCN(C)CC1 [Lipid 205]
61.16

Then there is this compound:
Return Size for the following compound: CCCCCCCCCCCOC(=O)CCCCCN(CCCCCCCCOC(=O)C(CCCCCC)CCCCCCCC)CCOC(=O)NCc1ncc[nH]1 (stereo not shown) [Lipid 221]
65.7

====

Please go through the items and note down their In vitro Viability HepG2.
System: Hep G2 cells
ASSAY INFO: In vitro toxicity (CellTiter-Glo cell viability), Hep G2;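 further: percent of untreated cells luminescence signal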
Type: cell-based
SETTINGS: mRNA (SEQ ID NO: 2) LNP, 1 μg/mL, 72 hours post transfection
Numbers only, in %.

Worked cases, In vitro Viability HepG2 given:
Return In vitro Viability HepG2 for the following compound: CCCCC/C=C\C/C=C\CCCCCCCCN(CCCCCCCC/C=C\C/C=C\CCCCC)CCOC(=O)[C@@H](N)Cc1c[nH]cn1 [Lipid B, reference compound]
97

Return In vitro Viability HepG2 for the following compound: CCCCC/C=C\C/C=C\CCCCCCCCN(CCCCCCCC(=O)OC(CCCCCCCC)CCCCCCCC)CCCOC(=O)NCCN1CCCCC1
100

Return In vitro Viability HepG2 for the following compound: CCCCCCCCCC(=O)OCCCCCCCN(CCCCCCCCOC(=O)C(CCCCCC)CCCCCCCC)CCOC(=O)NCCN1CCCC1 (stereo not shown)
116

Return In vitro Viability HepG2 for the following compound: CCCCC/C=C\C/C=C\CCCCCCCCN(CCCCCCCC/C=C\C/C=C\CCCCC)CCOC(=O)CCCN(C)C [Lipid A, reference compound]
108

Return In vitro Viability HepG2 for the following compound: CCCCC/C=C\C/C=C\CCCCCCCCN(CCCCCCCC/C=C\CCCCCCCC)CCOC(=O)NCc1ncc[nH]1
100

Return In vitro Viability HepG2 for the following compound: CCCCCCCCC(CCCCCCCC)OC(=O)CCCCCCCN(CCCCCCCCOC(=O)C(CCCCCC)CCCCCCCC)CCCOC(=O)NCCN1CCCCCC1 (stereo not shown)
104

# per-item lookup of In vitro Viability HepG2; items listed below
1. CCCCC/C=C\C/C=C\CCCCCCCCN(CCCCCCCC(=O)OC(CCCCCCCC)CCCCCCCC)CCOC(=O)NCc1ncc[nH]1
2. CCCCCCCCC(CCCCCC)C(=O)OCCCCCCCCN(CCCCCCCCOC(=O)C(CCCCCC)CCCCCCCC)CCCOC(=O)NCCN1CCCCC1 (stereo not shown)
3. CCCCCCCCC(CCCCCC)C(=O)OCCCCCCCCN(CCCCCCCCOC(=O)C(CCCCCC)CCCCCCCC)CCCOC(=O)NCCN1CCCCCC1 (stereo not shown)

[80, 94, 94]

# per-item lookup of In vitro Viability HepG2; items listed below
1. CCCCC/C=C\C/C=C\CCCCCCCCN(CCCCCCCC(=O)OC(CCCCCCCC)CCCCCCCC)CCCOC(=O)NCc1ncc[nH]1
2. CCCCC/C=C\C/C=C\CCCCCCCCN(CCCCCCCC(=O)OC(CCCCCCCC)CCCCCCCC)CCCOC(=O)NCCCn1ccnc1
3. CCCCCCCCC(CCCCCC)C(=O)OCCCCCCCCN(CCCCCCCCOC(=O)C(CCCCCC)CCCCCCCC)CCCOC(=O)NCCCN(CC)CC (stereo not shown)
4. CCCCCCCCCCC(CCCCCCCC)COC(=O)CCCCCN(CCCCCC(=O)OCC(CCCCCCCC)CCCCCCCCCC)CCOC(=O)NCCN1CCCC1 (stereo not shown)

[117, 115, 53, 70]
